Source of measurements: patent US6921531B2

assaySystem: alkaline phosphatase (Human Placenta) (Homo sapiens, UniProt P05187)
Construct: roughly 2-fold for the eel intestine and human placenta isoforms of the enzyme; from tissue; host or cells: human placenta
Sequence (P05187 23-506): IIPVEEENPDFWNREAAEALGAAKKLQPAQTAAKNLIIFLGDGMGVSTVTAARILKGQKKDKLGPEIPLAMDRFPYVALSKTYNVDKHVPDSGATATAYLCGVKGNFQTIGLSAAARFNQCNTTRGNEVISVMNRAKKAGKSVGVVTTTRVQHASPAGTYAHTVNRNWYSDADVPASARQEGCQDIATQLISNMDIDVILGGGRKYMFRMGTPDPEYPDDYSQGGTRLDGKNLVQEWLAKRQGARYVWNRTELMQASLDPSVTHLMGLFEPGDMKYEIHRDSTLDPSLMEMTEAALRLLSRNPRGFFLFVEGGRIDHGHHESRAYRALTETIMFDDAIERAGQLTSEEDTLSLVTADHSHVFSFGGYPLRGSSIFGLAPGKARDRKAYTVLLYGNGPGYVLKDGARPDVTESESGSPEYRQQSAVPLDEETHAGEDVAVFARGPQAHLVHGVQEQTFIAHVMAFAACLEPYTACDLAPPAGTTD
assayExplanation: Alkaline phosphatase inhibition, Human Placenta isoform
Assay type: biochemical
testSettings: Human Placenta; 100 μM human serum albumin; pH 10; read-out: IC50 (100 μM albumin)
measuredParameter: IC50 (µM)
Output spec: scalar in µM, unitless text.

Please fill in: IC50 reported for CC(C)(S)C(N)C(=O)NCC(=O)Nc1ccc(C(=O)O)c(O)c1 (stereo not shown) = 45

* * *

assaySystem: alkaline phosphatase (Bacteria) (Escherichia coli, UniProt P00634)
Sequence (P00634 22-471): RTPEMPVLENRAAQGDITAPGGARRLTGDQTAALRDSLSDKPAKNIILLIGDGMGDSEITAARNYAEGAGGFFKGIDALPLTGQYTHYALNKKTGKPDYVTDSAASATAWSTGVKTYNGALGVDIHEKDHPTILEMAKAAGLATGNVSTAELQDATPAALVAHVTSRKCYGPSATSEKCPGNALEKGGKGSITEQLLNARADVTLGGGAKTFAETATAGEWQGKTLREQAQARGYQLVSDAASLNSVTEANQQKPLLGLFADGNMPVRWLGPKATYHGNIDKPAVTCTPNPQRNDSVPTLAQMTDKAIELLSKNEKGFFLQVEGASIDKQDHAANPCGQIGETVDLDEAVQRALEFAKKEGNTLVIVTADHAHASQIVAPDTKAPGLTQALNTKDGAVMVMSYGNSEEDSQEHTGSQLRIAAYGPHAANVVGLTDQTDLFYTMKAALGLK
assayExplanation: Alkaline phosphatase inhibition, Bacteria isoform
Format: biochemical
Method: Reactions were conducted in 200 mM diethanolamine buffer, pH 10, with methylumbeliferal phosphate as the substrate. The reaction was monitored by recording fluorescence of the hydrolysis product (excitation at 355 nm, fluorescence at […]), and the first 10% of the reaction was used to determine the rate of the reaction. […]
measuredParameter: IC50 (µM)
Output spec: scalar in µM, unitless text.

Short answer on alkaline phosphatase (Bacteria) (Escherichia coli, UniProt P00634) for CC(C)(S)C(N)C(=O)NCC(=O)Nc1ccc(C(=O)O)c(O)c1 (stereo not shown) , IC50: 50

* * *

assaySystem: alkaline phosphatase (Dog Intestine) (Canis lupus familiaris, UniProt A0A8C0LCK3)
Sequence (A0A8C0LCK3 23-522): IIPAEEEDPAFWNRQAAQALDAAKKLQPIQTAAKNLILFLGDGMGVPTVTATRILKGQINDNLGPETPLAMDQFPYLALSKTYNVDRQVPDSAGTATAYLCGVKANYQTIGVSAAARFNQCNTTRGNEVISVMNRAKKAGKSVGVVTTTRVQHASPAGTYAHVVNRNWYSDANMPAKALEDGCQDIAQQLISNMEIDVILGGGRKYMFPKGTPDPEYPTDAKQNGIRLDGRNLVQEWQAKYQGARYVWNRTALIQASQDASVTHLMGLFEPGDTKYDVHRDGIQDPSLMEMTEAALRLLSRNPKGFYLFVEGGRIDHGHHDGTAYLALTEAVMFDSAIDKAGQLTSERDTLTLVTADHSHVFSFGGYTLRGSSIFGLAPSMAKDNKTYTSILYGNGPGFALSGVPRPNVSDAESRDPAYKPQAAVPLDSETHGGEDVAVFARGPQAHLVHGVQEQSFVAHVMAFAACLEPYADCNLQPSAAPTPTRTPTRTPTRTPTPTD
assayExplanation: Alkaline phosphatase inhibition, Dog Intestine isoform
Assay type: biochemical
testSettings: read-out: IC50 (100 μM albumin), 100 μM human serum albumin, pH 10
measuredParameter: IC50 (µM)
Output spec: scalar in µM, unitless text.

Please fill in: IC50 reported for CC(C)(S)C(N)C(=O)NCC(=O)Nc1ccc(C(=O)O)c(O)c1 (stereo not shown) = 20

* * *

assaySystem: alkaline phosphatase (Dog Intestine) (Canis lupus familiaris)
assayExplanation: Alkaline phosphatase inhibition, Dog Intestine isoform
Format: biochemical
testSettings: read-out: IC50 (no albumin), no albumin, pH 10
Description: Reactions were conducted in 200 mM diethanolamine buffer, pH 10, with methylumbeliferal phosphate as the substrate. The reaction was monitored by recording fluorescence of the hydrolysis product (excitation at 355 nm, fluorescence at […]), and the first 10% of the reaction was used to determine the rate of the reaction. […]
measuredParameter: pIC50
Recall that pIC50 is obtained by taking minus log10 of the concentration measured in molar.

Please fill in: pIC50 reported for CC(C)(S)C(N)C(=O)NCC(=O)Nc1ccc(C(=O)O)c(O)c1 (stereo not shown) = 4.70

* * *

assaySystem: alkaline phosphatase (Bacteria) (Escherichia coli, UniProt P00634)
assayExplanation: Alkaline phosphatase inhibition, Bacteria isoform
Assay type: biochemical
testSettings: read-out: IC50 (100 μM albumin); Bacteria; 100 μM human serum albumin; pH 10
measuredParameter: pIC50
Recall that pIC50 is obtained by taking minus log10 of the concentration measured in molar.

Please fill in: pIC50 reported for CC(C)(S)C(N)C(=O)NCC(=O)Nc1ccc(C(=O)O)c(O)c1 (stereo not shown) = 4.30

* * *

assaySystem: alkaline phosphatase (Human Placenta) (Homo sapiens, UniProt P05187)
Construct: roughly 2-fold for the eel intestine and human placenta isoforms of the enzyme; from tissue; host or cells: human placenta
assayExplanation: Alkaline phosphatase inhibition, Human Placenta isoform
Format: biochemical
testSettings: Human Placenta; no albumin; pH 10; read-out: IC50 (no albumin)
Procedure: Reactions were conducted in 200 mM diethanolamine buffer, pH 10, with methylumbeliferal phosphate as the substrate. The reaction was monitored by recording fluorescence of the hydrolysis product (excitation at 355 nm, fluorescence at […]), and the first 10% of the reaction was used to determine the rate of the reaction. […]
measuredParameter: pIC50
Recall that pIC50 is obtained by taking minus log10 of the concentration measured in molar.

Please fill in: pIC50 reported for CC(C)(S)C(N)C(=O)NCC(=O)Nc1ccc(C(=O)O)c(O)c1 (stereo not shown) [Compound 1] = 3.52
